# protocol.text: Viability qHTS for spleen associated tyrosine kinase inhibitor (SYKi) naive MV4-11 cells (AID 1963823); also: nearly all actives have a fitted effect of over 40% in size
# cond: MV4-11 AML viability, CellTiter-Glo luminescence, 72 h; series mostly up to 45 µM
Records with an inconclusive call do not appear. Calls of active or inactive are those of the source. Calls follow the shape of the dose curve; as a rule, active = well fitted cell-killing curve with a large enough effect; inconclusive = small, poorly fitted or top-dose-only effect, or effect the other way; inactive = no such curve, though single readings can be large or run the other way.
The categories you may choose from are T = active, F = inactive

[
  {
    "compound": "COc1ccccc1N1CCN(CC(O)COc2cccc3ccccc23)CC1 (stereo not given)",
    "category": "F"
  }
]

Task: Which outcome did this test record for the compound CC(O)C1CCC2C3CCC4CC(OC5OC(C(=O)O)C(O)C(O)C5O)CCC4(C)C3CCC12C (stereo not given) ?
Result: F

Task: Which outcome did this test record for the compound C/C=C1\[C@H]2C=C(C)C[C@]1(N)c1ccc(=O)[nH]c1C2 ?
Result: F

Task: Which outcome did this test record for the compound CNCc1cc(-c2ccccc2F)n(S(=O)(=O)c2cccnc2)c1 ?
Result: F

Task: Which outcome did this test record for the compound COc1ccc(CCc2nc3cc(-c4c(C)noc4C)ccc3n2CC(C)N2CCOCC2)cc1Cl (stereo not given) ?
Result: T

Task: Which outcome did this test record for the compound CCOc1ccc(NS(=O)(=O)c2ccc(N)cc2)nn1 ?
Result: F

Task: Which outcome did this test record for the compound CC(C)(C)CC(C)(C)c1ccc(O)c(-n2nc3ccccc3n2)c1 ?
Result: F

Task: Which outcome did this test record for the compound CC(C(=O)O)c1ccc(C(=O)c2ccccc2)s1 (stereo not given) ?
Result: F

Task: Which outcome did this test record for the compound C=CC1(C)C=C2CCC3C(C)(C)C(O[C@@H]4O[C@@H](CO)[C@H](O)[C@H]4O)CCC3(C)C2CC1O[C@@H]1O[C@H](C)[C@H](O)[C@H](O)[C@H]1O (stereo not given in full) ?
Result: F

Task: Which outcome did this test record for the compound C=CC(C)(C)C12Nc3c(ccc4c3OC(C)(C)C=C4)C1(O)CC1C(=O)N3CCCC3C(=O)N12 (stereo not given) ?
Result: F
